Documented W2 across a set of compounds
Tested on: P. falciparum W2
Test: Malaria SYBR Green Fluorescence Assay, W2 strain
Format: cell-based, Plasmodium falciparum
Details: SYBR Green Assay
// units = ng/mL; emit number, no label

For orientation, consider the following solved cases.
>>> df
                                   compound  observed_result
0  COc1ccc(Nc2nc(NCCC3CCCN3C)nc(C(Cl)(Cl)Cl)n2)cn1 (stereo not shown) [Cmpd 341]                5
1  CC1(C)CC(Nc2nc(-c3ccc(C(Cl)(Cl)Cl)cc3)nc(C(Cl)(Cl)Cl)n2)CC(C)(C)N1 [Cmpd 325]               82
2  Clc1ccc(-c2nc(NCCc3ccncc3)nc(C(Cl)(Cl)Cl)n2)cc1 [Cmpd 139]               81
3  CN(Cc1ccccc1-c1cccnc1)c1nc(-c2ccc(S(C)(=O)=O)cc2)nc(C(Cl)(Cl)Cl)n1 [Cmpd 129]              102

input: Write down the reported W2 of Cc1ccc(-c2nc(NCCc3cccnc3)nc(C(Cl)(Cl)Cl)n2)cc1 [Cmpd 172] , test system: P. falciparum W2.
output: 106

input: Provide value of W2 for this record tested with P. falciparum W2: CSc1ccc(-c2nc(NCCCN3CCCC3)nc(C(Cl)(Cl)Cl)n2)cc1 [Cmpd 44]
output: 204

---

Tested on: P. falciparum W2
Experiment: Malaria SYBR Green Fluorescence Assay, W2 strain
Format: cell-based, Plasmodium falciparum
Settings: SYBR Green Assay
endpoint_label: log10(W2) (log10 of the value in ng/mL)
Note the log scale: values are log10 of W2 expressed in ng/mL.

input: Fill in: log10(W2) of `CC(C)CN1CCC(Nc2nc(-c3cccc(Cl)c3)nc(C(Cl)(Cl)Cl)n2)CC1` is ___
output: 2.29

input: Suppose we examine the compound `CC(C)(N)CNc1nc(-c2ccc(S(C)(=O)=O)cc2)nc(C(Cl)(Cl)Cl)n1` ; what log10(W2) value has been reported?
output: 1.30

input: Could you tell me which log10(W2) is on file for `CCN1CCC(CNc2nc(-c3ccccc3-c3ccc(C)cc3)nc(C(Cl)(Cl)Cl)n2)CC1` ?
output: 2.02

input: Can you share its log10(W2)? I mean this compound: NC1CCCCC1Nc1nc(-c2ccc(Cl)c(Cl)c2)nc(C(Cl)(Cl)Cl)n1 (stereo not drawn)
output: 1.04

input: State the recorded log10(W2) for this entry: `COc1ncccc1Nc1nc(NC2CC(C)(C)NC(C)(C)C2)nc(C(Cl)(Cl)Cl)n1`
output: 0.95

input: For the compound `Clc1ccc(-c2nc(NCc3cccnc3)nc(C(Cl)(Cl)Cl)n2)cc1` , what log10(W2) is on record?
output: 2.05

input: Sample `Cc1ccc(-c2nc(NCCc3ccncc3)nc(C(Cl)(Cl)Cl)n2)cc1` — what was its log10(W2)?
output: 1.97

input: Consider the compound shown here: `NC1(CNc2nc(-c3cccc(C(F)(F)F)c3)nc(C(Cl)(Cl)Cl)n2)CCOCC1` What is its recorded log10(W2)?
output: 0.00

input: Which measured log10(W2) value corresponds to `OCCN1CCN(c2nc(-c3ccc4ccccc4c3)nc(C(Cl)(Cl)Cl)n2)CC1` ?
output: 1.36

input: Please look up its log10(W2): CC(=O)Nc1cccc(Nc2nc(NCCC3CCCN3C)nc(C(Cl)(Cl)Cl)n2)c1 (stereo not drawn)
output: 2.03

input: Entry under review: `FC(F)(F)c1cccc(-c2nc(N3CCCNCC3)nc(C(Cl)(Cl)Cl)n2)c1` . Reported log10(W2)?
output: 1.67

input: What value of log10(W2) has been reported for the following compound? `CN1CCCN(c2nc(-c3cc(Cl)cc(Cl)c3)nc(C(Cl)(Cl)Cl)n2)CC1`
output: 0.85

input: Name the reported log10(W2) value associated with the compound `CC(C)(N)CNc1nc(-c2ccccc2)nc(C(Cl)(Cl)Cl)n1`
output: 0.48
